Entry source: patent US9637491B2

Target: SYK kinase (Homo sapiens, UniProt P43405)
Construct: purchased Invitrogen, Carlsbad
Test: SYK assay (OMNIA Kinase Assay, Invitrogen)
Format: biochemical
Conditions: SYK Activities; 1 mM ATP, 10 μM Omnia Peptide Substrate Tyr 7, 30° C.

{"Compound": "CC(C)Cn1cc(-c2nc(Nc3ccc(N4CCOCC4)cc3)c3[nH]ncc3n2)cn1", "IC50": "100 to 1000 nM"}
{"Compound": "O=C(c1ccc(Nc2nc(C3CCC3)nc3cn[nH]c23)cc1F)N1CCOCC1", "IC50": "100 to 1000 nM"}
{"Compound": "COc1ccc(Nc2nc(C3CCOC3)nc3cn[nH]c23)cc1OC (stereo not drawn)", "IC50": "100 to 1000 nM"}
{"Compound": "COc1cccc(-c2nc(Nc3cnn(C4CCOCC4)c3)c3[nH]ncc3n2)c1", "IC50": "10 to 100 nM"}
{"Compound": "CN1CCC(n2cc(Nc3nc(-c4ccco4)nc4cn[nH]c34)cn2)CC1", "IC50": "< 10 nM"}
{"Compound": "COC(=O)c1cccc(-c2nc(Nc3cnn(C4CCOCC4)c3)c3[nH]ncc3n2)c1", "IC50": "10 to 100 nM"}
{"Compound": "CC(C(=O)O)n1cc(Nc2nc(C3CC3)nc3cn[nH]c23)cn1 (stereo not drawn)", "IC50": "100 to 1000 nM"}
{"Compound": "Fc1cccc(F)c1-c1nc(Nc2ccc3c(c2)NCCO3)c2[nH]ncc2n1", "IC50": "10 to 100 nM"}
{"Compound": "COc1ccc(Nc2nc(-c3ccno3)nc3cn[nH]c23)cc1OC", "IC50": "100 to 1000 nM"}
{"Compound": "COc1cc(Nc2nc(-c3ccc4cn[nH]c4c3)nc3cn[nH]c23)ccc1N1CCOCC1", "IC50": "< 10 nM"}
{"Compound": "CC(=O)N1CCN(c2ccc(Nc3nc(C4(C)CC4)nc4cn[nH]c34)cc2)CC1", "IC50": "100 to 1000 nM"}
{"Compound": "O=C1CCCc2ccc(Nc3nc(-c4ccc5cn[nH]c5c4)nc4cn[nH]c34)cc2N1", "IC50": "10 to 100 nM"}
{"Compound": "c1cc(-c2nc(Nc3ccc(N4CCOCC4)cc3)c3[nH]ncc3n2)no1", "IC50": "100 to 1000 nM"}
{"Compound": "COc1cc(Nc2nc(-c3ccon3)nc3cn[nH]c23)ccc1N1CCOCC1", "IC50": "100 to 1000 nM"}
{"Compound": "CC(=O)N1CCN(c2ccc(Nc3nc(-c4ccccc4F)nc4cn[nH]c34)cc2)CC1", "IC50": "100 to 1000 nM"}
{"Compound": "O=C1COc2ccc(Nc3nc(C4CC4)nc4cn[nH]c34)cc2N1", "IC50": "10 to 100 nM"}
{"Compound": "c1nn(C2CCOCC2)cc1Nc1nc(-c2nc3c(s2)CCCC3)nc2cn[nH]c12", "IC50": "10 to 100 nM"}
{"Compound": "Cc1c(Nc2nc(-c3ccoc3)nc3cn[nH]c23)cnn1C1CCOCC1", "IC50": "100 to 1000 nM"}
